Reported values: IC50 for Proteasome chymotrypsin-like activity (S26 protein from RPMI8226 cells) (Homo sapiens), one per item.

> print(dat)
                                   compound  measured
1  CCCC1(C(=O)N[C@@H](CC(C)C)B(O)O)CC(CNC(=O)c2cc(Cl)ccc2Cl)=NO1 (some centres unmarked)   < 25 nM

Form: item COc1ccccc1C(=O)NCC1=NOC(C(=O)N[C@@H](CC(C)C)B(O)O)C1 (some centres unmarked) ; test system Proteasome chymotrypsin-like activity (S26 protein from RPMI8226 cells) (Homo sapiens); IC50: < 50 nM

Here Cc1cc(COCC2=NOC(Cc3ccccc3)(C(=O)N[C@@H](CC(C)C)B(O)O)C2)ccn1 (some centres unmarked) was tested on Proteasome chymotrypsin-like activity (S26 protein from RPMI8226 cells) (Homo sapiens), and its IC50 came to < 10 nM

The reported Proteasome chymotrypsin-like activity (S26 protein from RPMI8226 cells) (Homo sapiens) IC50 of CC(C)C[C@H](NC(=O)C1(Cc2ccccc2)CC(CNC(=O)c2cccc3c2cnn3C(C)C)=NO1)B(O)O (some centres unmarked) is < 10 nM

Short answer on Proteasome chymotrypsin-like activity (S26 protein from RPMI8226 cells) (Homo sapiens) for Cc1cc(C(=O)NCC2=NOC(Cc3ccccc3)(C(=O)N[C@@H](CC(C)C)B(O)O)C2)n(-c2ccccc2)n1 (some centres unmarked) , IC50: < 10 nM

Param item: Cc1nc(C)c(C(=O)NCC2=NOC(Cc3cccc(Cl)c3)(C(=O)N[C@@H](CC(C)C)B(O)O)C2)s1 (some centres unmarked) ; param system: Proteasome chymotrypsin-like activity (S26 protein from RPMI8226 cells) (Homo sapiens); output IC50: < 10 nM

Reading of IC50 for CC(C)C[C@H](NC(=O)C1(Cc2ccccc2)CC(CNC(=O)c2ccn[nH]2)=NO1)B(O)O (some centres unmarked) with Proteasome chymotrypsin-like activity (S26 protein from RPMI8226 cells) (Homo sapiens): < 25 nM
